Below, each entry is listed alongside its reported Percent Effect.
target: Proteasome subunit beta (Trypanosoma cruzi) (UniProt O96673)
Sequence (whole entry): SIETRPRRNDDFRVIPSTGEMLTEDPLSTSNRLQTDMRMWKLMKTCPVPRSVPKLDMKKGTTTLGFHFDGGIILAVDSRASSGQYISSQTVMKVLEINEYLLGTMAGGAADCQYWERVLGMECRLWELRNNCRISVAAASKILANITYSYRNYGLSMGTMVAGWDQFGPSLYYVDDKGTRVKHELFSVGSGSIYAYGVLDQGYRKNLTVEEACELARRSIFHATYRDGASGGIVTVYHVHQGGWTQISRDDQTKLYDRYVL
run_description: Trypanosoma cruzi proteasome chymotrypsin-like activity (TcProtChymo) assay.
Type: functional
Parameters: scale not given: in the data most compounds retested in dose-response had high values
assay_setup: 9.37 µM
Please format your answer as a value with the unit trailing.

Previously resolved entries follow.
compound	Percent Effect
c1cncc(-c2nccc(CN3CCCC3)n2)c1	19.5%
CCN1CCN(c2ccc(CNC(=O)c3c(C)noc3C)cn2)CC1	23.8%

For reference, reported Percent Effect for CC(C)CNC(=O)c1ccc2nnc(C3CCN(S(C)(=O)=O)C3)n2c1 (stereo unspecified) stands at 3.44%

GET /value?item= CN(Cc1ccccn1)C1COC2(CCN(Cc3cccnc3)CC2)C1 (stereo unspecified) &field=Percent Effect returns 12.1%

Quick note, Percent Effect for CN(Cc1ccc(F)cc1)C(=O)CN1CCCC(Cn2cncn2)C1 (stereo unspecified) landed at -6.8%

Reported Percent Effect of COc1cc(CNCc2c(C(C)C)nn(C)c2N(C)C)ccn1 : 14%

The value of Percent Effect measured for the compound COc1cccc(C(=O)NCCCN2CCc3ccccc3C2)c1OC turned out to be -5.34%

Memo: COc1ccc(C(=O)N2CC[C@H](CO)[C@H](O)C2)c(C)c1 , reported Percent Effect: 10.1%
